B1: KCNK9 (parent)
chain: CFITLTTIGFGDYVALQTKGALQK

variants of: B1; assay: protein stability index of a GFP-peptide fusion (GPS, HEK-293T) (PSI 1-6); higher = more stable; settings: c terminus: a fixed tail appended;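 further: lentivirally expressed fusions sorted by FACS into six bins by GFP to DsRed ratio, PSI derived from sequencing read proportions per bin multiplied by bin number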

sequence-input	protein stability index
CFITLTTIGFGDYVALYTKGALQK [Q17Y]	3.01
CFITLTTIGFGDYVALLTKGALQK [Q17L]	2.23
CFITLTMIGFGDYVALQTKGALQK [T7M]	2.54
CFITLTQIGFGDYVALQTKGALQK [T7Q]	2.52
CFITLTTIGFGDYVATQTKGALQK [L16T]	2.26
CFITLTLIGFGDYVALQTKGALQK [T7L]	3.38
CFITLTTIGFGDYVANQTKGALQK [L16N]	2.54
CFITLTTIGFGDYVALQTAGALQK [K19A]	3.43
CFITQTTIGFGDYVALQTKGALQK [L5Q]	2.07
CVITLTTIGFGDYVALQTKGALQK [F2V]	2.51
CFITLTRIGFGDYVALQTKGALQK [T7R]	2.44
CFITLTTIGFGDYVAMQTKGALQK [L16M]	1.56
CFITLTTIGFGDRVALQTKGALQK [Y13R]	2.32
CFITLTTIGFGDYNALQTKGALQK [V14N]	1.86
CFITLTTIGFGDYVALQTKGAMQK [L22M]	3.38
CFITLTTIGFGDYVNLQTKGALQK [A15N]	2.76
CFITLTTIGFNDYVALQTKGALQK [G11N]	2.99
CFITLTTIGFGDYVALQPKGALQK [T18P]	1.64
CFITLTTIGFGDYVALQTKGALHK [Q23H]	3.06
CFITLTTIGFGDYVALQMKGALQK [T18M]	2.49
CFITLTTIGFSDYVALQTKGALQK [G11S]	2.18
CFITLTTIGFGDYVALQTKGARQK [L22R]	2.12
CFITLTTIGFGDYSALQTKGALQK [V14S]	2.06
CFITLTTDGFGDYVALQTKGALQK [I8D]	2.14
CFITLTTIGFGDYVAWQTKGALQK [L16W]	2.27
CFITLTTIGFGDYVALQTYGALQK [K19Y]	3.38
CFITLTTIGFGDYVALQTKGGLQK [A21G]	2.1
CFITLTTIGFGDYIALQTKGALQK [V14I]	2.86
CFITLTTIGFHDYVALQTKGALQK [G11H]	3.08
CQITLTTIGFGDYVALQTKGALQK [F2Q]	1.82
CFITLTTIGFGDYVALQCKGALQK [T18C]	3.43
CFITLTTIGFGDYVAHQTKGALQK [L16H]	2.43
CFITLTVIGFGDYVALQTKGALQK [T7V]	2.77
DFITLTTIGFGDYVALQTKGALQK [C1D]	1.57
CFITLTTTGFGDYVALQTKGALQK [I8T]	3.29
CFITLTTIVFGDYVALQTKGALQK [G9V]	4.79
CFIDLTTIGFGDYVALQTKGALQK [T4D]	2.54
